- measurement.target: T1, LINGO-Fc (human, UniProt Q96FE5 40-538, limits assumed)
- T1 construct: not shown: Fc part
- T1 sequence: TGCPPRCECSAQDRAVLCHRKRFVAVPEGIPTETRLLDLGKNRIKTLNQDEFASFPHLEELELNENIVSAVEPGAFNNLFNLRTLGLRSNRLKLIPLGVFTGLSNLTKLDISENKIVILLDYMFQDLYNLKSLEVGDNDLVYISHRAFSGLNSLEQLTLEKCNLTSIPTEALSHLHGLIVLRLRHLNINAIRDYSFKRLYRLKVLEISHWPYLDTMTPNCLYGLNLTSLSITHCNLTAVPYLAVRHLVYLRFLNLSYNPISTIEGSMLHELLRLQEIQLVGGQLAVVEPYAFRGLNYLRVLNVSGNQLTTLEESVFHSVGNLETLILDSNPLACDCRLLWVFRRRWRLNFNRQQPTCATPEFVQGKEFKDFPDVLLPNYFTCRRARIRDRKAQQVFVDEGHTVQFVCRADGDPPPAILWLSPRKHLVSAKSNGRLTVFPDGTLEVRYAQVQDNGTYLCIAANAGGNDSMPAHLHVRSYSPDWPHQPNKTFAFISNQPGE
- method: direct ELISA on LINGO-Fc; OD450 at saturation relative to Li33;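 note: binding to plate-coated LINGO-Fc read by OD450, with the value at maximal saturation divided by the corresponding Li33 value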
The following binders are listed with their measured Plateau Ratio values.
Reply with the number, then its unit.

Li33 variant W104V (SEQ ID NO:155) (antibody, V domains shown, unchanged chain from WT Li33) VH: EVQLLESGGGLVQPGGSLRLSCAASGFTFSIYPMFWVRQAPGKGLEWVSWIGPSGGITKYADSVKGRFTISRDNSKNTLYLQMNSLRAEDTATYYCAREGHNDVYFDLWGRGTLVTVSS VL: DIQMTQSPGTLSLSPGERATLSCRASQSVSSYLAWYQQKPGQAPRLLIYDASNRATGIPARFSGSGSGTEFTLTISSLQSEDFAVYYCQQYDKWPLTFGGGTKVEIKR | 0.94 ratio

Please give measured Plateau Ratio of the following entry: Li33 variant I57G (SEQ ID NO:159) (antibody, V domains shown, unchanged chain from WT Li33) VH: EVQLLESGGGLVQPGGSLRLSCAASGFTFSIYPMFWVRQAPGKGLEWVSWIGPSGGGTKYADSVKGRFTISRDNSKNTLYLQMNSLRAEDTATYYCAREGHNDWYFDLWGRGTLVTVSS VL: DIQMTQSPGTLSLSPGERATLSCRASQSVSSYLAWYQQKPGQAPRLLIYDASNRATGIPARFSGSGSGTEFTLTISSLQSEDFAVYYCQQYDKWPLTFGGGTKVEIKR
0.91 ratio

Supply recorded Plateau Ratio for Li33 variant W94D (SEQ ID NO:166) (antibody, V domains shown, unchanged chain from WT Li33) VH: EVQLLESGGGLVQPGGSLRLSCAASGFTFSIYPMFWVRQAPGKGLEWVSWIGPSGGITKYADSVKGRFTISRDNSKNTLYLQMNSLRAEDTATYYCAREGHNDWYFDLWGRGTLVTVSS VL: DIQMTQSPGTLSLSPGERATLSCRASQSVSSYLAWYQQKPGQAPRLLIYDASNRATGIPARFSGSGSGTEFTLTISSLQSEDFAVYYCQQYDKDPLTFGGGTKVEIKR here.
0.87 ratio

Note down Plateau Ratio recorded for Li33 variant P53T (SEQ ID NO:153) (antibody, V domains shown, unchanged chain from WT Li33) VH: EVQLLESGGGLVQPGGSLRLSCAASGFTFSIYPMFWVRQAPGKGLEWVSWIGTSGGITKYADSVKGRFTISRDNSKNTLYLQMNSLRAEDTATYYCAREGHNDWYFDLWGRGTLVTVSS VL: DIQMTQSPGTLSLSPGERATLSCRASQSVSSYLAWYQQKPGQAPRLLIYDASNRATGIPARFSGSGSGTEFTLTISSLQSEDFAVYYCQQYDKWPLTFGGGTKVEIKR
0.85 ratio

Please indicate Plateau Ratio recorded for Li33 variant I57L (SEQ ID NO:163) (antibody, V domains shown, unchanged chain from WT Li33) VH: EVQLLESGGGLVQPGGSLRLSCAASGFTFSIYPMFWVRQAPGKGLEWVSWIGPSGGLTKYADSVKGRFTISRDNSKNTLYLQMNSLRAEDTATYYCAREGHNDWYFDLWGRGTLVTVSS VL: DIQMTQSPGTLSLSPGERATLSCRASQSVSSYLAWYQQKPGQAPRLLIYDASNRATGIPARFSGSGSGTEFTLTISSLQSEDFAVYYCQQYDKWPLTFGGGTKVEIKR
1 ratio

Numbers sourced from patent US20130323786A1.
